Assayed system: MNK2a (Homo sapiens)
Sequence (Q9HBH9 whole entry): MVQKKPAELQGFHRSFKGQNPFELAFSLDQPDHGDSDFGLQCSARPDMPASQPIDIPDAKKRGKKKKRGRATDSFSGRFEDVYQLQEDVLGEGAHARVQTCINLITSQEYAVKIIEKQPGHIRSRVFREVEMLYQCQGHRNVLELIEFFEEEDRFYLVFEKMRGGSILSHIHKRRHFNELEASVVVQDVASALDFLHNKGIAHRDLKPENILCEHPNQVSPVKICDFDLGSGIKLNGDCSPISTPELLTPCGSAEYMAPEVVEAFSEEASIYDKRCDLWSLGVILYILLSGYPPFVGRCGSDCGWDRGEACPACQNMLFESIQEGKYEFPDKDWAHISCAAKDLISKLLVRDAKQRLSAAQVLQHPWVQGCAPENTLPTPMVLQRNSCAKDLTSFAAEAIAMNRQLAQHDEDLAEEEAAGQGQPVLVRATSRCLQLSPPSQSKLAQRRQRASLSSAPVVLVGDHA
Experiment summary: MNK2a in vitro kinase assay (assay 1), ADP-Glo
Experimental setup: preactivated GST-MNK2a, 20 μM ATP, read-out: MNK2 IC50
pIC50: −log10 of the molar value.
Quantity measured: pIC50

- Compound: "Cc1cc(N=S(C)(C)=O)cc2ncnc(Nc3ccc(F)cc3O[C@@H]3CC[C@@H]4OCC[C@@H]43)c12"
  Assayed system: "MNK2a (Homo sapiens)"
  Measurement: 8.40
- Compound: "Cc1cc(N=S(C)(C)=O)cc2ncnc(Nc3ccc(Cl)nc3O[C@H]3CCOC3)c12"
  Assayed system: "MNK2a (Homo sapiens)"
  Measurement: 8.52
- Compound: "Cc1cc(N=S(C)(C)=O)cc2ncnc(Nc3cccnc3O[C@@H]3CCCNC3)c12"
  Assayed system: "MNK2a (Homo sapiens)"
  Measurement: 7.16
- Compound: "Cc1cc(N=S2(=O)CCCC2)cc2ncnc(Nc3ccc(F)cc3O[C@@H]3CCN(S(C)(=O)=O)C3)c12"
  Assayed system: "MNK2a (Homo sapiens)"
  Measurement: 9.00
- Compound: "Cc1cc(N=S(C)(C)=O)cc2ncnc(Nc3ccc(F)cc3O[C@H]3CC[C@H](C#N)CC3)c12"
  Assayed system: "MNK2a (Homo sapiens)"
  Measurement: 8.40
- Compound: "CC(C)(C)OC(=O)N1CCC[C@@H](Oc2ncccc2Nc2ncnc3cc(N=S(C)(C)=O)cc(F)c23)C1"
  Assayed system: "MNK2a (Homo sapiens)"
  Measurement: 6.79
- Compound: "Cc1cc(N=S2(=O)CCCC2)cc2ncnc(Nc3ccc(F)cc3O[C@@H]3CCN(C(=O)OC(C)(C)C)C3)c12"
  Assayed system: "MNK2a (Homo sapiens)"
  Measurement: 7.82
- Compound: "Cc1cc(N=S(C)(C)=O)cc2ncnc(Nc3ccc(F)cc3O[C@@H]3CCCN(CCC#N)C3)c12"
  Assayed system: "MNK2a (Homo sapiens)"
  Measurement: 8.40
- Compound: "Cc1cc(N=S(C)(C)=O)cc2ncnc(Nc3ccc(F)cc3O[C@@H]3CO[C@@H]4CCO[C@@H]43)c12 [Example 2.39]"
  Assayed system: "MNK2a (Homo sapiens)"
  Measurement: 8.70
- Compound: "Cc1cc(N=S(C)(C)=O)cc2ncnc(Nc3ccc(F)cc3O[C@@H]3CC[C@H]3O)c12"
  Assayed system: "MNK2a (Homo sapiens)"
  Measurement: 8.52
- Compound: "Cc1cc(N=S(C)(=O)C2CCOCC2)cc2ncnc(Nc3ccc(F)cc3O[C@@H]3CO[C@@H]4CCO[C@@H]43)c12 (some centres unmarked)"
  Assayed system: "MNK2a (Homo sapiens)"
  Measurement: 8.30
- Compound: "Cc1cc(N=S(C)(C)=O)cc2ncnc(Nc3ccc(F)cc3O[C@@H]3CCCN(C(=O)OC(C)(C)C)C3)c12"
  Assayed system: "MNK2a (Homo sapiens)"
  Measurement: 7.34
- Compound: "Cc1cc(N=S2(=O)CCCC2)cc2ncnc(Nc3cccnc3O[C@@H]3CO[C@H]4[C@@H]3OC[C@H]4O)c12"
  Assayed system: "MNK2a (Homo sapiens)"
  Measurement: 8.40
- Compound: "Cc1cc(N=S2(=O)CCCC2)cc2ncnc(Nc3ccc(F)cc3O[C@@H]3CO[C@@H]4OCC[C@@H]43)c12 (racemic)"
  Assayed system: "MNK2a (Homo sapiens)"
  Measurement: 8.30
